# Tested on: Recombinant human IL-1β (BioLegend 579404) (human, UniProt P01584 117-269)
# Test details: cell-based or functional assay
Non-standard residues stand in square brackets, D forms with d. F4ptCCA = trans-4-[4-(2-amino-2-carboxyethyl)phenyl]cyclohexanecarboxylic acid; Trp(βS-Me,4-F) = C[C@@H](c1c[nH]c2cccc(F)c12)[C@H](N)C(=O)O; Bip(4'-COOH) = N[C@@H](Cc1ccc(-c2ccc(C(=O)O)cc2)cc1)C(=O)O; dPro(4R-Bzl(4-F)) = O=C(O)[C@H]1C[C@@H](Cc2ccc(F)cc2)CN1; Ala(pyrimidin-5-yl) = N[C@@H](Cc1cncnc1)C(=O)O; Phe(4-COOH) = N[C@@H](Cc1ccc(C(=O)O)cc1)C(=O)O; Pro(cis-4-F) = O=C(O)[C@@H]1C[C@H](F)CN1; 4Pal = N[C@@H](Cc1ccncc1)C(=O)O; αMeS = C[C@](N)(CO)C(=O)O; Dab = NCC[C@H](N)C(=O)O; Aib = CC(C)(N)C(=O)O
Measured metric: MRC5 IC50 (nM)

| Binder | MRC5 IC50 / nM |
| --- | --- |
| cyclo([Bip(4'-COOH)][4Pal][Phe(4-COOH)]G[Pro(cis-4-F)][Trp(βS-Me,4-F)][αMeS]EW[Aib][Ala(pyrimidin-5-yl)]Q[Dab]G[dPro(4R-Bzl(4-F))]) [SEQ ID NO: 22] | 0.027 |
| cyclo([F4ptCCA][4Pal][Phe(4-COOH)]G[Pro(cis-4-F)][Trp(βS-Me,4-F)][Aib]EW[Aib][Ala(pyrimidin-5-yl)]Q[Dab]G[dPro(4R-Bzl(4-F))]) [SEQ ID NO: 114] | 0.035 |

Data origin: patent US20260242419A1
